Test system: MDA-MB-468
Assay: NCI-60 screen, Breast Cancer
Assay type: cell-based, human
Settings: 10 μM
Item-by-item account of Percent Growth

>  <molecule>
NCCCc1cccc(-c2ccc3sc4ccc(-c5cccc(CCCN)c5)cc4c3c2)c1 [Compound D]

>  <units_symbol>
%

>  <Percent Growth>
17.63

$$$$
>  <molecule>
N=C(N)NCCCCC(=O)Nc1cc(C(F)(F)F)cc(NC(=O)Nc2ccc(NC(=O)Nc3cc(C(F)(F)F)cc(NC(=O)CCCCNC(=N)N)c3OC3CCNC3)cc2)c1OC1CCNC1 (stereo not shown) [Compound B]

>  <units_symbol>
%

>  <Percent Growth>
43.02

$$$$
>  <molecule>
NCCSc1cc(SCCN)c(C(F)(F)F)cc1NC(=O)c1cc(C(=O)Nc2cc(C(F)(F)F)c(SCCN)cc2SCCN)ncn1 [Compound F]

>  <units_symbol>
%

>  <Percent Growth>
−78.28

$$$$
>  <molecule>
NCCc1cc(Br)cc(C#Cc2cccc(C#Cc3cc(Br)cc(CCN)c3)c2)c1 [Compound A]

>  <units_symbol>
%

>  <Percent Growth>
−61.5

$$$$
>  <molecule>
NCCCc1cccc(-c2ccc3oc4ccc(-c5cccc(CCCN)c5)cc4c3c2)c1 [Compound G]

>  <units_symbol>
%

>  <Percent Growth>
−3.51

$$$$
>  <molecule>
N=C(N)NCCCCC(=O)Nc1cc(C(F)(F)F)cc(NC(=O)c2cc(C(=O)Nc3cc(C(F)(F)F)cc(NC(=O)CCCCNC(=N)N)c3SCCN)ncn2)c1SCCN [Compound C]

>  <units_symbol>
%

>  <Percent Growth>
−53.05

$$$$
>  <molecule>
c1cc(-c2ccc3sc4ccc(-c5ccnc(N6CCNCC6)c5)cc4c3c2)cc(N2CCNCC2)n1 [Compound E]

>  <units_symbol>
%

>  <Percent Growth>
−82.28

$$$$

----------
Item-by-item account of Percent Growth
Test system: RXF 393
Assay: NCI-60 screen, Renal Cancer
Format: cell-based, human
Conditions: 10 μM
Experimental: Several compounds were tested at single concentrations (10 μM) against 59 different human tumor cell lines, representing leukemia, melanoma and cancers of the lung, colon, brain, ovary, breast, prostate, and kidney (see, Table 3). […] Following drug addition, the plates were incubated for an additional 48 hours at 37° C., 5% CO2, 95% air, and 100% relative humidity. […] Percentage growth inhibition was calculated as: […] Three dose response parameters were calculated for each compound. […]

>  <compound>
N=C(N)NCCCCC(=O)Nc1cc(C(F)(F)F)cc(NC(=O)Nc2ccc(NC(=O)Nc3cc(C(F)(F)F)cc(NC(=O)CCCCNC(=N)N)c3OC3CCNC3)cc2)c1OC1CCNC1 (stereo not shown) [Compound B]

>  <units_symbol>
%

>  <Percent Growth>
87.84

$$$$
>  <compound>
NCCSc1cc(SCCN)c(C(F)(F)F)cc1NC(=O)c1cc(C(=O)Nc2cc(C(F)(F)F)c(SCCN)cc2SCCN)ncn1 [Compound F]

>  <units_symbol>
%

>  <Percent Growth>
47.68

$$$$
>  <compound>
NCCc1cc(Br)cc(C#Cc2cccc(C#Cc3cc(Br)cc(CCN)c3)c2)c1 [Compound A]

>  <units_symbol>
%

>  <Percent Growth>
−26.13

$$$$
>  <compound>
NCCCc1cccc(-c2ccc3oc4ccc(-c5cccc(CCCN)c5)cc4c3c2)c1 [Compound G]

>  <units_symbol>
%

>  <Percent Growth>
65.05

$$$$
>  <compound>
c1cc(-c2ccc3sc4ccc(-c5ccnc(N6CCNCC6)c5)cc4c3c2)cc(N2CCNCC2)n1 [Compound E]

>  <units_symbol>
%

>  <Percent Growth>
−70.65

$$$$
>  <compound>
NCCCc1cccc(-c2ccc3sc4ccc(-c5cccc(CCCN)c5)cc4c3c2)c1 [Compound D]

>  <units_symbol>
%

>  <Percent Growth>
81.71

$$$$
>  <compound>
N=C(N)NCCCCC(=O)Nc1cc(C(F)(F)F)cc(NC(=O)c2cc(C(=O)Nc3cc(C(F)(F)F)cc(NC(=O)CCCCNC(=N)N)c3SCCN)ncn2)c1SCCN [Compound C]

>  <units_symbol>
%

>  <Percent Growth>
78.06

$$$$
